Where these numbers come from: patent US5061711A

Settings: bovine, not told, 960 min
quantity_measured: Membrane permeation constant

- compound: "O=C(O)c1cc(C(=O)O)c2c(n1)C(=O)C(=O)c1cc(C(=O)O)[nH]c1-2 [PQQ.2Na, reference compound]"
  quantity_measured: "Membrane permeation constant"
  endpoint_result: "0.68 ± 0.36 10^-7 cm^2 · sec^-1"
- compound: "C=CCOC(=O)c1cc(C(=O)OCC=C)c2c(n1)C(=O)C(=O)c1cc(C(=O)OCC=C)[nH]c1-2"
  quantity_measured: "Membrane permeation constant"
  endpoint_result: "2.42 ± 0.60 10^-7 cm^2 · sec^-1"
- compound: "COC(=O)c1cc(C(=O)OC)c2c(n1)C(=O)C(=O)c1cc(C(=O)OC)[nH]c1-2"
  quantity_measured: "Membrane permeation constant"
  endpoint_result: "1.41 ± 0.48 10^-7 cm^2 · sec^-1"

// Membrane permeation constant value for CCOC(=O)c1cc(C(=O)OCC)c2c(n1)C(=O)C(=O)c1cc(C(=O)OCC)[nH]c1-2 : 1.22 ± 0.37 10^-7 cm^2 · sec^-1
